Can you tell me folding enthalpy for the items I'm about to list?
test: folding enthalpy; higher = less favourable; fluorescence melt of hairpins on a sequencing array, two-state fit; conditions: sodium 0.088 M
Give just the numeric value; kJ/mol need not be written.

What value of measured folding enthalpy is listed for GCGTACGCGAAAGCGCGC (((..(((....)))))) ?
-70.2

Consider next the sequence GCGTTCGAAAGAAGACGC ((((((....)))..))) in the same way.
-133

Consider next the sequence GTCCCCGAAAGGGTTGAC ((((((....)))..))) in the same way.
-63.8

Consider next the sequence GTTACAGGAAACTGTGAC ((.((((....)))).)) in the same way.
-125

Consider next the sequence ACGTGGAAACACGT (((((....))))) in the same way.
-91.9

Consider next the sequence GCGTGCTGACGC ((((....)))) in the same way.
-75.6

Consider next the sequence GAACCCGGAAACGGGCTC ((.((((....)))).)) in the same way.
-64.4

Consider next the sequence GCCTAGCGAAAGCTGAGC ((..(((....)))..)) in the same way.
-44.8

Consider next the sequence GCACTTCGAAAGAAATGC (((.(((....))).))) in the same way.
-131

Consider next the sequence GCACGGACGAAAGTCTGC (((..(((....)))))) in the same way.
-53.9

Consider next the sequence GATGGCCGAAAGGCGATC (((.(((....))).))) in the same way.
-100

Consider next the sequence GATCGTCACAACGATC ((((((....)))))) in the same way.
-165

Consider next the sequence GCCCGGCGAAAGCCTAGC ((..(((....)))..)) in the same way.
-57.9

Consider next the sequence GTCTACGAAAGTAAAGAC ((((((....)))..))) in the same way.
-99.5

Consider next the sequence GTTATAGCGAAAGCTAAC (((..(((....)))))) in the same way.
-59.9

Consider next the sequence GACTGGGGAAACCCAATC ((.((((....)))).)) in the same way.
-61

Consider next the sequence GCGGAGGGCCGC ((((....)))) in the same way.
-64.6

Consider next the sequence GATCCATATGTGGATC ((((((....)))))) in the same way.
-160

Consider next the sequence GAGTAGCGAAAGCTCCTC (((.(((....))).))) in the same way.
-83.7

Consider next the sequence GCGTCTTTACGC ((((....)))) in the same way.
-117

Consider next the sequence GATCAATCGCTTGATC ((((((....)))))) in the same way.
-188

Consider next the sequence GATCTGCGCCAGATC ((((((...)))))) in the same way.
-148

Consider next the sequence GCCAGGCGAAAGCTTTGC ((.(.((....)).).)) in the same way.
-48.2

Consider next the sequence GTTCGGGCGAAAGCCAAC (((..(((....)))))) in the same way.
-44.9

Consider next the sequence GATTCCCCGAAAGGGATC (((..(((....)))))) in the same way.
-50.8

Consider next the sequence GCATTTCGAAAGAAGTGC (((.(((....))).))) in the same way.
-191

====

experiment: melting temperature; fluorescence melt of hairpins on a sequencing array, two-state fit, raised by 9.35 °C to match UV melts; conditions: sodium 0.088 M
Entries get a class label from measured Tm. See ranges: b0: < 40 °C; b1: ≥ 40 °C and < 50 °C; b2: ≥ 50 °C

Lab note: which band did GGTCCGGGAAACCGGGTC (..((((....))))..) land in?
b1

Consider next the sequence GATCTTATTAAGATC ((((((...)))))) in the same way.
b1

Consider next the sequence GCTGTCGCGAAAGCGAGC (((..(((....)))))) in the same way.
b1

Consider next the sequence GAGCACGGAAACGTGCCC (.(((((....))))).) in the same way.
b2

Consider next the sequence GCCCCGCGAAAGCATGGC (((..((....))..))) in the same way.
b1

Consider next the sequence GATCTACCGATAGATC ((((((....)))))) in the same way.
b0

Consider next the sequence GGGTAGGGAAACCTGCCC (((.(((....))).))) in the same way.
b2

Consider next the sequence GTCAATACGAAAGTAGAC (((..(((....)))))) in the same way.
b0

Consider next the sequence GATCGCACTGGCGATC ((((((....)))))) in the same way.
b2

Consider next the sequence GCTTTAGAAATAAAGC ((((((....)))))) in the same way.
b1

Consider next the sequence GCATGCGGAAACACACGC ((.((.(....).)).)) in the same way.
b0

Consider next the sequence GGATAAGGAAACTTATTC (.(((((....))))).) in the same way.
b0

Consider next the sequence CGCTCCGGAAACGGCGCG (((.(((....))).))) in the same way.
b2

Consider next the sequence GGCTTCGGAAACGAAACC ((.((((....)))).)) in the same way.
b1

Consider next the sequence GTATAACGAAAGTTTAC (((.(((....)))))) in the same way.
b0

Consider next the sequence GTGCATCGAAAGATACAC (((.(((....))).))) in the same way.
b1

Consider next the sequence GGATACGAAAGTAATCC ((((((....))).))) in the same way.
b1

Consider next the sequence GGTCACGAAAGTGCCACC ((((((....)))..))) in the same way.
b1

Consider next the sequence GTATTAGCGAAAGCTTAC (((..(((....)))))) in the same way.
b0

Consider next the sequence GGCAACGAAAGTTTGGCC ((((((....)))..))) in the same way.
b1

Consider next the sequence GTTTCCGAAAGGATAAC ((((((....))).))) in the same way.
b0

Consider next the sequence GGCGGTGGAAACGCTGCC (((.(.(....).).))) in the same way.
b2

Consider next the sequence GCGGCCTTCCGC ((((....)))) in the same way.
b2

====

assay: melting temperature; fluorescence melt of hairpins on a sequencing array, two-state fit, raised by 9.35 °C to match UV melts; conditions: sodium 0.088 M
Entries get a class label from measured Tm. See ranges: low bracket (below 50 °C), middle bracket (50 °C to below 60 °C), high bracket (60 °C or more)

Lab note: which band did GCCAGCGAAAGCTAAGGC ((((((....)))..))) land in?
middle bracket

Consider next the sequence GATGACGAAAGTCACATC ((((((....)))..))) in the same way.
low bracket

Consider next the sequence GAATCAGGAAACTGATCC (.(((((....))))).) in the same way.
low bracket

Consider next the sequence GATCGATATATCGATC ((((((....)))))) in the same way.
middle bracket

Consider next the sequence GTCACAGGAAACTGTGAC (((((((....))))))) in the same way.
high bracket

Consider next the sequence GGAGCAGGAAACCGCTCC (((((.(....).))))) in the same way.
middle bracket

====

experiment: melting temperature; fluorescence melt of hairpins on a sequencing array, two-state fit, raised by 9.35 °C to match UV melts; settings: sodium 0.088 M
observed_property: Tm (°C)
Give just the numeric value; °C need not be written.

What value of measured Tm is listed for GGAGAGGGAAACTTCTCC (((((.(....).))))) ?
44.3

Consider next the sequence GTCATTGAAAAATGAC ((((((....)))))) in the same way.
51.9

Consider next the sequence GGCCTGGGAAACTGGGCC ((((..(....)..)))) in the same way.
54.7

Consider next the sequence GAGACCGAAAGGTATCTC ((((((....)))..))) in the same way.
53

Consider next the sequence GCCGTATCGAAAGATGGC (((..(((....)))))) in the same way.
47.4

Consider next the sequence GATCTTAGACAAGATC ((((((....)))))) in the same way.
37.3

Consider next the sequence CCATAGAAATATGG (((((....))))) in the same way.
35.2

Consider next the sequence GATCGTCTCACGATC ((((((...)))))) in the same way.
57.4

Consider next the sequence GCCTTGCGAAAGCCTGGC (((..((....))..))) in the same way.
53.9

Consider next the sequence GTGGGCGAAAGCCTGCAC ((((((....)))..))) in the same way.
45.3

Consider next the sequence GGAAAACGAAAGTTCTCC (((.(((....))).))) in the same way.
35.7

Consider next the sequence GAGCCTCCGAAAGGACTC (((..(((....)))))) in the same way.
31.9

src = the array DNA melting data of Ke et al. (doi:10.1101/2024.01.08.574731)
